Assay: rotarod test (neurotoxicity), mouse
Conditions: rotarod, ip, at time of peak anticonvulsant effect
quantity name: TD50 ip at time of peak effect

Known TD50 ip at time of peak effect results, listed for orientation:
1. NC(=O)N1c2ccccc2C=Cc2ccccc21 [carbamazepine] = 67(29-108) mg/kg
2. CCC1(c2ccccc2)C(=O)NC(=O)NC1=O = 86(54-140) mg/kg
3. O=C1NC(=O)C(c2ccccc2)(c2ccccc2)N1 = 56(27-74) mg/kg

Would you kindly look at the next entry?
Input NCc1nnc(-c2ccccc2-c2ccccc2)s1 . Output TD50 ip at time of peak effect: 45(23-68) mg/kg
